Study Target: T1, hAMY3R (human, UniProt P30988)
T1 sequence 1: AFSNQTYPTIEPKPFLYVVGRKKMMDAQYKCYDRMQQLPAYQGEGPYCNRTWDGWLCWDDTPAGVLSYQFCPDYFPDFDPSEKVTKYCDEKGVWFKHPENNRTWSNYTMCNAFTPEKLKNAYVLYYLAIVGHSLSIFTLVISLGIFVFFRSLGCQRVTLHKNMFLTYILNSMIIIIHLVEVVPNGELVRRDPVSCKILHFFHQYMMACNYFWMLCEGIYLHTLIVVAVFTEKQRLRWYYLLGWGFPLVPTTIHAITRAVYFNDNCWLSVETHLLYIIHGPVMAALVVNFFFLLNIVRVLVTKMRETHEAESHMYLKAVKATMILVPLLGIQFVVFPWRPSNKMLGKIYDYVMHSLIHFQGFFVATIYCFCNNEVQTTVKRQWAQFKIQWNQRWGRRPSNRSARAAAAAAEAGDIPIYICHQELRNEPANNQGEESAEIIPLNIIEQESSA
T1 sequence 2: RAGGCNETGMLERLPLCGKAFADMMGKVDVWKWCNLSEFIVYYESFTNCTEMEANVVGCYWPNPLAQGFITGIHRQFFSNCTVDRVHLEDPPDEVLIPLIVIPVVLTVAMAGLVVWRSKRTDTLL
Assay: cell-based or functional assay
Numbered stars: 1 amine (or outer) side, 2 acyl side, 3 side chain; on linkers, the order of the positions; unused ones are H or OH. Bridge positions count the residues as written; N and C are the ends. Square brackets hold non-standard residues; d marks the D form. Ends that are not written are not given here. * marks the point of attachment. C20 diacid = O=C(O)CCCCCCCCCCCCCCCCCCC(=O)*; γGlu = O=C(O)[C@H](CCC(=O)[*:2])N[*:1]; Hyp = O=C(O)[C@@H]1C[C@@H](O)CN1; Cit = NC(=O)NCCC[C@H](N)C(=O)O
Catalogue of hAMY3R EC50 (cAMP) readings, one per entry.
Provide the reading as a plain figure in nM.

Previously resolved entries follow.
INSERT INTO results (binder, readout_label, number) VALUES
  ('KCNTATCTVQWLAHQIYQFTDKDKDAVAPPTNVGSNG[Hyp]-NH2 (disulfide 2-7 (inferred); ends not checked) [SEQ ID NO: 324]', 'hAMY3R EC50 (cAMP)', 0.028),
  ('{C20 diacid-γGlu}-KCNTSTCTVQRLAHQIAQFTDKDKDPVAPPTNVGSNG[Hyp]-NH2 (disulfide 2-7 (inferred); not fully specified; ends not checked) [SEQ ID NO: 88]', 'hAMY3R EC50 (cAMP)', 0.015),
  ('GCRFGTCTVQ[Cit]LAHQIYQFTDKDKDNVAPRTKISPNG[Hyp]-NH2 (disulfide 2-7 (inferred); ends not checked) [SEQ ID NO: 275]', 'hAMY3R EC50 (cAMP)', 0.02),
  ('GCRFGTCTVQRLAHQIYQFTDKDKDNVAPRSNVGPNGY [SEQ ID NO: 373]', 'hAMY3R EC50 (cAMP)', 0.02);

With those in mind, consider the next binder.
Enquiry: Item GCRTGTCTVQRLAHQIYQFTDKDKDNVAPRSNVSPNG[Hyp]-NH2 (disulfide 2-7 (inferred); ends not checked) [SEQ ID NO: 166] has what recorded hAMY3R EC50 (cAMP)?
Return: 0.056
